The measurements presented in this section are drawn from PubChem BioAssay (NCI).

- measurement.description: NCI Yeast Anticancer Drug Screen. Data for the sgs1 mgt1 strain (AID 161);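 further: 0% = growth of cultures given vehicle only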
- measurement.conditions: S. cerevisiae sgs1 mgt1 strain, at 50.0 µM, active compounds read high
The panel holds about 79,000 compounds, 15% with a hit somewhere; the sample as a whole holds those more often.
measured.property: growth inhibition (%)
Response body: numeric value in %, unit text excluded.

Field: example entries. Status: answers known.
CCOC1(OCC)CS(=O)(=O)C1c1ccccc1 (stereo not drawn)
1.95
Clc1ccc(CNc2ncnc3nc(Cl)[nH]c23)cc1
-4.6

Endpoint output: growth inhibition of CCOC(=O)C(=O)c1c(C)[nH]c(C)c1C(=O)OCC . Value?
17.1

* * *

- measurement.description: NCI Yeast Anticancer Drug Screen. Data for the cln2 rad14 strain (AID 165);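 further: 0% = growth equal to vehicle treated cultures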
- measurement.conditions: S. cerevisiae cln2 rad14 strain, at 50.0 µM, active compounds read high
This is part of a sample that, as a whole, favours compounds with a hit. Of some 79,000 tested, about 15% had one in any assay.
measured.property: growth inhibition (%)
Give the value, in units of %, as a plain number.

CSc1nc2nc[nH]c(=O)c2[nH]1
-14.1
O=C(C[n+]1cccc(Cl)c1)c1cccc([N+](=O)[O-])c1
-3.8
COc1cccc2c1CCC1=CC(=O)CCC12C (stereo not drawn)
28.8

Consider the compound shown here: CC(=O)OC[C@]1(O)CC[C@@]23CC1C[C@@H]2CCC1C(C)(C)CCC[C@@]13C (stereo partly drawn) What is its recorded growth inhibition?
71.6

What does the record list as growth inhibition for CC12CS(=O)(=O)CC1O2 (stereo not drawn) ?
1.9

Requested field: growth inhibition. Item: CCC(=O)N1NC(=O)C(CC)(CC)C1=O
10.7

Requested field: growth inhibition. Item: O=[N+]([O-])c1ccc(/C=N/Nc2cnnc(Cl)c2Cl)cc1
-33

// returns reported growth inhibition for input Nc1ncnc(N)c1NC(=O)CCCCc1ccccc1
4.8

* * *

- measurement.description: NCI Yeast Anticancer Drug Screen. Data for the rad50 strain (AID 155);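 further: 0% = growth of vehicle-only cultures of the same strain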
- measurement.conditions: S. cerevisiae rad50 strain growth inhibition; at 50.0 µM
Compounds without any hit were thinned out: in the full panel of roughly 79,000, 15% have a hit. Calls of active or inactive are those of the source. Cut-off read from the data, not from the text of the source: active = growth inhibition above about 70%; inactive = the rest.
The reply should be one of these categories: active, inactive

// below: answered molecules
CC(=O)OCCOCCN1CCN(c2c(O)c3c(c(O)c2Cl)C(=O)C=CC3=O)CC1
active
CC1OC(C)(CCc2ccccc2)OC1C (stereo not drawn)
inactive

As a next step, examine the molecule that follows.
Given CC1(C)C(O)c2ccccc2OC1N1CCN(C2Oc3ccccc3C(O)C2(C)C)CC1 (stereo not drawn) , state the outcome it received in this test.
inactive

* * *

Each entry below carries its recorded growth inhibition.
- measurement.description: NCI Yeast Anticancer Drug Screen. Data for the rad50 strain (AID 155);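 further: 0% = growth of vehicle-only cultures of the same strain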
- measurement.conditions: S. cerevisiae rad50 strain growth inhibition; at 50.0 µM; active compounds read high
This is part of a sample that, as a whole, favours compounds with a hit. Of some 79,000 tested, about 15% had one in any assay. Active and inactive are the calls of the source. Cut-off read from the data, not from the text of the source: active = growth inhibition above about 70%; inactive = the rest.

N#CC1=C2CCCC(C#N)=C2CCC1
0.95% (inactive)
COc1ccc(S(=O)(=O)N2OC2c2ccccc2)cc1 (stereo unspecified)
-22.2% (inactive)
CCOC(=O)CSCCC(=O)OC
-1.3% (inactive)

Can you share its growth inhibition? I mean this molecule: Cc1ccc(CCn2cnc3c(N(CCO)CCO)ncnc32)cc1
-8.45% (inactive)

Find the recorded growth inhibition belonging to N#Cc1cc(-c2ccccc2)c[nH]c1=O and report it.
-8.55% (inactive)

Please report the recorded growth inhibition for COC(=O)CSSCc1ccccc1 .
3.5% (inactive)

* * *

Listed compounds paired with reported growth inhibition
- measurement.description: NCI Yeast Anticancer Drug Screen. Data for the mec2-1 strain (AID 157)
- measurement.conditions: S. cerevisiae mec2-1 strain, at 50.0 µM, active compounds read high
Compounds without any hit were thinned out: in the full panel of roughly 79,000, 15% have a hit.
Return type: number; implicit unit %.

Worked cases, answers included:
CN1CCN(C(=S)N(C)C(=O)c2ccc(Cl)cc2)CC1
-20.1
O=C1c2ccccc2C(=O)N1CCS(=O)(=O)CCS(=O)(=O)CCN1C(=O)c2ccccc2C1=O
4.95
Cc1cc(C)c(/C=C\C(=O)c2ccccc2)c(C)c1
-7.65

Which growth inhibition reading was recorded for the compound O=C1NC(Nc2ccccc2)=NC(C(F)(F)F)(C(F)(F)F)N1 ?
1.1

// returns reported growth inhibition for input CCCNC(=O)/C=C/C(=O)NCCC
-0.8

Consider the compound CCOC(OCC)c1ccccc1C and give its measured growth inhibition.
9.3

* * *

- measurement.description: NCI Yeast Anticancer Drug Screen. Data for the rad50 strain (AID 155);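 further: 0% = growth of vehicle-only cultures of the same strain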
- measurement.conditions: S. cerevisiae rad50 strain growth inhibition; at 50.0 µM; active compounds read high
This is part of a sample that, as a whole, favours compounds with a hit. Of some 79,000 tested, about 15% had one in any assay. Active and inactive are the calls of the source. Cut-off read from the data, not from the text of the source: active = growth inhibition above about 70%; inactive = the rest.
The entries below are paired with their reported growth inhibition.

Solved cases (10 shown):
CC(=O)c1ccc(NC(N)=O)cc1
2.15% (inactive)
Cc1cnc(SC(C)(C)C)c(C)c1
-0.2% (inactive)
OC(CBr)CBr
1.8% (inactive)
N#Cc1c(C(F)(F)F)cc(-c2cccs2)nc1SC(C(=O)Nc1c(F)cccc1F)c1ccccc1 (stereo not drawn)
15.8% (inactive)
CC(=O)NNc1nc(C)c(C(=O)NNC(=O)C(=O)Nc2cccc(C(C)=O)c2)s1
7.3% (inactive)
COc1ccn(C2OC(=O)C(C)(C)C2=O)c(=O)n1 (stereo not drawn)
-0.4% (inactive)
O=S(=O)(c1ccccc1)N1CN(S(=O)(=O)c2ccccc2)CN(S(=O)(=O)c2ccccc2)C1
0.95% (inactive)
COC(=O)C1=C(c2ccccc2)c2ccc3ccccc3c2C1c1ccccc1 (stereo not drawn)
40.1% (inactive)
CCCCCCCC(=O)Nc1ccc(-n2c(=O)cc(C)n2C)cc1
15.7% (inactive)
CCCCCCCCCCCCCCCC(C)O (stereo not drawn)
-45.8% (inactive)

Give the measured growth inhibition of CC(C)c1cccc(C(C)C)c1N1C(=O)C(=O)C(c2nc3ccccc3s2)C(=O)C1=O .
-11.7% (inactive)

Entry under review: CCOC(C)Oc1ccccc1 (stereo not drawn) . Reported growth inhibition?
35.5% (inactive)

Would you mind telling me what growth inhibition value was observed for COc1ccc(NC(=O)CCc2cc(-c3ccc(O)c(OC)c3)nc(NC#N)n2)cc1 ?
-8.1% (inactive)

* * *

- measurement.description: NCI Yeast Anticancer Drug Screen. Data for the bub3 strain (AID 167)
- measurement.conditions: S. cerevisiae bub3 mutant strain, at 50.0 µM, active compounds read high
The panel holds about 79,000 compounds, 15% with a hit somewhere; the sample as a whole holds those more often.
measured.property: growth inhibition (%)
Write down the numeric answer in % and omit the unit.

CC12C=CC(=O)C=C1CCC1C2C(O)CC2(C)/C(=C\CO)CCC12 (configuration not stated)
60.2
CC(C)N(CC(=O)NC(=O)c1ccccc1)C(C)C
0.05

Please report the recorded growth inhibition for Cn1cnc(N)c1S(N)(=O)=O .
-6.3

What measured growth inhibition goes with O=C1/C(=C/c2ccccc2)N=C(c2ccccc2)N1n1c(-c2ccccc2)nc2ccccc2c1=O ?
-4.05

Which growth inhibition reading was recorded for the compound CN(CC1CCCCC1=O)CC1CCCCC1=O (configuration not stated) ?
19

* * *

- measurement.description: NCI Yeast Anticancer Drug Screen. Data for the mlh1 rad18 strain (AID 175)
- measurement.conditions: S. cerevisiae mlh1 rad18 strain growth inhibition; at 50.0 µM; active compounds read high
The panel holds about 79,000 compounds, 15% with a hit somewhere; the sample as a whole holds those more often.
measured.property: growth inhibition (%)
Your answer should be a plain number; it is taken to be in %.

Some compounds with recorded growth inhibition:
CC(C)C(=O)Nc1nc2c(ncn2C2OC(CO)C(O)C2O)c(=O)[nH]1 (stereo not drawn)
-4.15
c1cc[n+](Cc2ccc3ccccc3n2)cc1
28.9
CCCCCCCCCCCCCCCCCCCCCCCCSC(=N)N
12.9
CCCCCCCCCCCCCCCCCC(=O)Nc1nc(N)nc(N)n1
6.15
COc1cccc(C(Nc2nncs2)Nc2nncs2)c1
16.1

growth inhibition for CCOC(CN(N=O)c1ccccc1C(C)C)OCC ?
-4.25

Reported growth inhibition for CCOC(=O)C(NC(=O)Cc1ccccc1)C(=O)O (stereo not drawn) : what is it?
3.35

Quick one: growth inhibition of CC1(C)CCCc2c(-c3ccccc3)cc3c4[nH]c5ccccc5c4cc[n+]3c21 ?
7

* * *

- measurement.description: NCI Yeast Anticancer Drug Screen. Data for the cln2 rad14 strain (AID 165);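 further: 0% = growth equal to vehicle treated cultures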
- measurement.conditions: S. cerevisiae cln2 rad14 strain, at 50.0 µM, active compounds read high
About 79,000 compounds went through this panel and 15% of them were active in at least one assay; those are over-represented in the sample as a whole.
measured.property: growth inhibition (%)
Numbers only; they are read as %.

Consider the following illustrative entries.
Cc1cccc2c1C(=O)C1(Cc3ccccc3C1=O)C2 (stereo not drawn)
-5.15
CN1CCCCC1=O
8.65
CC(=O)c1ccc2c(c1)-c1ccccc1C(=O)C2=O
-19.8
Cc1ccc(Cc2cc(=O)[nH]c(=S)[nH]2)cc1
-26.9

Which growth inhibition value is on record for CCOC(=O)C(C#N)=C(CC)CC ?
-3.95

// query growth inhibition value for entry CCCCCN(CCCCC)C(C)=O
-0.65

Report growth inhibition for CCC/C(=N/NC(=O)C(N)=O)C(CC)C(=O)CCC(=O)N(Cc1ccccc1)Cc1ccccc1 (stereo not drawn) please.
10.8

Which measured growth inhibition value corresponds to O=C(OCC1OC(OC(=O)c2ccccc2)C(F)C1OC(=O)c1ccccc1)c1ccccc1 (stereo not drawn) ?
-20.1
